B1: OAS1 (parent)
chain: YIGTHEYPHFSHRPSTLQAASTPQ

variants of: B1; assay: protein stability index of a GFP-peptide fusion (GPS, HEK-293T) (PSI 1-6); higher = more stable; conditions: c terminus: a fixed tail appended;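 also: lentivirally expressed fusions sorted by FACS into six bins by GFP to DsRed ratio, PSI derived from sequencing read proportions per bin multiplied by bin number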
The threshold is inclusive: protein stability index of exactly 2 counts as Satisfied; values below receive Not satisfied.

INSERT INTO assay_data (residue_change, assigned_label) VALUES
  ('T16R', 'Satisfied'),
  ('F10L', 'Satisfied'),
  ('Q18P', 'Not satisfied'),
  ('P23D', 'Satisfied'),
  ('E6N', 'Satisfied'),
  ('S15A', 'Satisfied'),
  ('S11L', 'Satisfied'),
  ('A20G', 'Not satisfied');

# input Could you tell me if the measured protein stability index of Y7E reaches 2 or more?
# output Satisfied

# input Could you tell me if the measured protein stability index of E6M reaches 2 or more?
# output Not satisfied

# input Could you tell me if the measured protein stability index of H9K reaches 2 or more?
# output Not satisfied

# input Could you tell me if the measured protein stability index of I2F reaches 2 or more?
# output Satisfied
